Provide the recorded log10(IC50) for the entries that follow.
molecular target: hNav1.6 (Homo sapiens (Human)); assay: Automated patch clamp (IonWorks Quattro) block of hNav1.6 channels in CHO cells; assay type: cell-based; conditions: 10 Hz frequency-dependent block (TP11), read-out: IC50 Nav1.6 10 Hz block
Sequence (Q9UQD0 whole entry): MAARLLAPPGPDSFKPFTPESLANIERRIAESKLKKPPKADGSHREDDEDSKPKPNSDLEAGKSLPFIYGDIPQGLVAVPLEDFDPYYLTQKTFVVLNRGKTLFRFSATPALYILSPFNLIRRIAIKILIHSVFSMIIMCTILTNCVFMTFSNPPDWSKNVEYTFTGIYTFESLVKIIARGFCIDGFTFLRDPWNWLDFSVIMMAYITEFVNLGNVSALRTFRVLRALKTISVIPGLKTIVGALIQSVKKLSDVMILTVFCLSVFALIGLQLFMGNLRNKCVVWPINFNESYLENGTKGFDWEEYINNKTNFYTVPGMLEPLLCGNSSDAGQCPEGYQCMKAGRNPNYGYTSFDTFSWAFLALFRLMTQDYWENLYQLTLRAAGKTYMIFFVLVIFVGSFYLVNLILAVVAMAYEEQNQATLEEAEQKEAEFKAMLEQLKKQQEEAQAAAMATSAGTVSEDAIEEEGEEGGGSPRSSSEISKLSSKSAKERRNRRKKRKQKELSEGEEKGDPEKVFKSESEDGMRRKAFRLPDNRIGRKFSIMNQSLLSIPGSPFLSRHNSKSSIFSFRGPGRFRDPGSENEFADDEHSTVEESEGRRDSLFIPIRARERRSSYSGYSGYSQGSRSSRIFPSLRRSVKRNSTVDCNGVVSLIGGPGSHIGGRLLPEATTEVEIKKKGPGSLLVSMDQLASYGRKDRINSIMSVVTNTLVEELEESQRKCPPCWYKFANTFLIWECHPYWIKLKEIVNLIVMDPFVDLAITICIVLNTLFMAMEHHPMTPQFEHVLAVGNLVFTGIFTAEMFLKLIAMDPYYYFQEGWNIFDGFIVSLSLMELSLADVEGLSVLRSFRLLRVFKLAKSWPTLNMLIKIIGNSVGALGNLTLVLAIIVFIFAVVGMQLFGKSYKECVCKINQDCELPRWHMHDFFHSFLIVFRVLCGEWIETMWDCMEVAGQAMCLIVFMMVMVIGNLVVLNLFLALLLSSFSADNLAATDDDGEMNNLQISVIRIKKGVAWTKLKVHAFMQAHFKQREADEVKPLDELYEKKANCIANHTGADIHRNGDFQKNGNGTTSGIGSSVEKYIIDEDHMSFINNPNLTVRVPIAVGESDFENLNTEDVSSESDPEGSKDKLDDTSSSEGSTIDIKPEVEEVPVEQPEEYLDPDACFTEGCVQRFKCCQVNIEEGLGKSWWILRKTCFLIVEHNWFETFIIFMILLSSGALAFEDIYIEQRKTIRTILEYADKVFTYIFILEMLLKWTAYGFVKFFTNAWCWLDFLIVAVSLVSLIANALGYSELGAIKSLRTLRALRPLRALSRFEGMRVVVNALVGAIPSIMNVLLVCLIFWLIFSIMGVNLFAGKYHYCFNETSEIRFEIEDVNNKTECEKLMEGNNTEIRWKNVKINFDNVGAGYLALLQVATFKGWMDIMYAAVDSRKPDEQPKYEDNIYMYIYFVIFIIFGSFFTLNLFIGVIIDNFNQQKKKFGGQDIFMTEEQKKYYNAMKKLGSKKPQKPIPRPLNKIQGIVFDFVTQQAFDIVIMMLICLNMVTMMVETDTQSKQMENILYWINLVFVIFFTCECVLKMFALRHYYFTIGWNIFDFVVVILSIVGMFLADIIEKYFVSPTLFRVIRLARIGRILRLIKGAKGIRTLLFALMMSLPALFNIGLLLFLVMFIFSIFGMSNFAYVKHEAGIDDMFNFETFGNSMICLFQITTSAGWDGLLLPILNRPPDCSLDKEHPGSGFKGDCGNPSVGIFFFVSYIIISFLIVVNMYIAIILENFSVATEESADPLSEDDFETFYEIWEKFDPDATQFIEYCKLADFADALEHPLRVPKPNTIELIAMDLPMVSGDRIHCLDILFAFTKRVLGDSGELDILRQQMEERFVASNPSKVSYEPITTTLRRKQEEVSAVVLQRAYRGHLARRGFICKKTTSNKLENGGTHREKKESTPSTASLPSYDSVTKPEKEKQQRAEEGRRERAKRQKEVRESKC
Heads up: the numbers are on a log10 scale; they represent IC50 in µM.

Reported log10(IC50) ( `Cc1cccc(C)c1OCCCNCc1cccc(F)c1` ) = 0.28

The compound listed as `Cc1cccc(C)c1OCCCNCc1ccc(C#N)cc1` has a reported log10(IC50) of 0.53

get_value(item= `Cc1cccc(C)c1OCCCNCc1ccccc1F` , readout=log10(IC50)) returns 0.30

# compound `Cc1cccc(C)c1OCCCNCc1cccnc1` ; its log10(IC50) = 1.09

Looking up `Cc1cccc(C)c1OCCCNCc1ccc(F)cc1` , I found its log10(IC50) recorded as 0.34

Looking up `Cc1cccc(C)c1OCCCNCc1cccc(-c2cncnc2)c1` , I found its log10(IC50) recorded as -0.40

Just so you know, measured log10(IC50) for `COc1ccccc1CNCCCOc1c(C)cccc1C` came out at 0.23

log10(IC50) measured on `Cc1cccc(C)c1OCCCNCc1ccc(O)cc1` = 0.68

Value of measured log10(IC50) for the entry `Cc1cccc(C)c1OCCCNCc1ccccn1` : 0.88

log10(IC50) reported for this compound `COc1ccc(CNCCCOc2c(C)cccc2C)cc1` : 0.41

# log10(IC50) of `Cc1cccc(C)c1OCCCNCc1ccccc1-c1ccccc1` = 0.57

----------
biological target: UniProtKB Q9UQD0; test: Automated patch clamp (IonWorks Quattro) block of hNav1.6 channels in CHO cells; assay type: cell-based; settings: Inactivated state block (TP12), read-out: IC50 Nav1.6 Inactivated state block
measurement.name: IC50 (µM)
Express it in µM; write the number only.

Note to self: IC50 recorded for `Cc1cccc(C)c1OCCCNCc1cccc(-c2cncnc2)c1` was 0.3

The recorded IC50 for `Cc1cccc(C)c1OCCCNCc1ccc(F)cc1` is 1.4

# IC50 of `Cc1cccc(C)c1OCCCNCc1ccccc1C(F)(F)F` = 2.3

----------
Kindly supply the reported IC50 values for the records listed here.
molecular target: hNav1.2 (Homo sapiens (Human), UniProt Q99250); test: Automated patch clamp (IonWorks Quattro) block of hNav1.2 channels in CHO cells; type: cell-based; settings: Inactivated state block (TP12), read-out: IC50 Nav1.2 Inactivated state block
Sequence (Q99250 whole entry): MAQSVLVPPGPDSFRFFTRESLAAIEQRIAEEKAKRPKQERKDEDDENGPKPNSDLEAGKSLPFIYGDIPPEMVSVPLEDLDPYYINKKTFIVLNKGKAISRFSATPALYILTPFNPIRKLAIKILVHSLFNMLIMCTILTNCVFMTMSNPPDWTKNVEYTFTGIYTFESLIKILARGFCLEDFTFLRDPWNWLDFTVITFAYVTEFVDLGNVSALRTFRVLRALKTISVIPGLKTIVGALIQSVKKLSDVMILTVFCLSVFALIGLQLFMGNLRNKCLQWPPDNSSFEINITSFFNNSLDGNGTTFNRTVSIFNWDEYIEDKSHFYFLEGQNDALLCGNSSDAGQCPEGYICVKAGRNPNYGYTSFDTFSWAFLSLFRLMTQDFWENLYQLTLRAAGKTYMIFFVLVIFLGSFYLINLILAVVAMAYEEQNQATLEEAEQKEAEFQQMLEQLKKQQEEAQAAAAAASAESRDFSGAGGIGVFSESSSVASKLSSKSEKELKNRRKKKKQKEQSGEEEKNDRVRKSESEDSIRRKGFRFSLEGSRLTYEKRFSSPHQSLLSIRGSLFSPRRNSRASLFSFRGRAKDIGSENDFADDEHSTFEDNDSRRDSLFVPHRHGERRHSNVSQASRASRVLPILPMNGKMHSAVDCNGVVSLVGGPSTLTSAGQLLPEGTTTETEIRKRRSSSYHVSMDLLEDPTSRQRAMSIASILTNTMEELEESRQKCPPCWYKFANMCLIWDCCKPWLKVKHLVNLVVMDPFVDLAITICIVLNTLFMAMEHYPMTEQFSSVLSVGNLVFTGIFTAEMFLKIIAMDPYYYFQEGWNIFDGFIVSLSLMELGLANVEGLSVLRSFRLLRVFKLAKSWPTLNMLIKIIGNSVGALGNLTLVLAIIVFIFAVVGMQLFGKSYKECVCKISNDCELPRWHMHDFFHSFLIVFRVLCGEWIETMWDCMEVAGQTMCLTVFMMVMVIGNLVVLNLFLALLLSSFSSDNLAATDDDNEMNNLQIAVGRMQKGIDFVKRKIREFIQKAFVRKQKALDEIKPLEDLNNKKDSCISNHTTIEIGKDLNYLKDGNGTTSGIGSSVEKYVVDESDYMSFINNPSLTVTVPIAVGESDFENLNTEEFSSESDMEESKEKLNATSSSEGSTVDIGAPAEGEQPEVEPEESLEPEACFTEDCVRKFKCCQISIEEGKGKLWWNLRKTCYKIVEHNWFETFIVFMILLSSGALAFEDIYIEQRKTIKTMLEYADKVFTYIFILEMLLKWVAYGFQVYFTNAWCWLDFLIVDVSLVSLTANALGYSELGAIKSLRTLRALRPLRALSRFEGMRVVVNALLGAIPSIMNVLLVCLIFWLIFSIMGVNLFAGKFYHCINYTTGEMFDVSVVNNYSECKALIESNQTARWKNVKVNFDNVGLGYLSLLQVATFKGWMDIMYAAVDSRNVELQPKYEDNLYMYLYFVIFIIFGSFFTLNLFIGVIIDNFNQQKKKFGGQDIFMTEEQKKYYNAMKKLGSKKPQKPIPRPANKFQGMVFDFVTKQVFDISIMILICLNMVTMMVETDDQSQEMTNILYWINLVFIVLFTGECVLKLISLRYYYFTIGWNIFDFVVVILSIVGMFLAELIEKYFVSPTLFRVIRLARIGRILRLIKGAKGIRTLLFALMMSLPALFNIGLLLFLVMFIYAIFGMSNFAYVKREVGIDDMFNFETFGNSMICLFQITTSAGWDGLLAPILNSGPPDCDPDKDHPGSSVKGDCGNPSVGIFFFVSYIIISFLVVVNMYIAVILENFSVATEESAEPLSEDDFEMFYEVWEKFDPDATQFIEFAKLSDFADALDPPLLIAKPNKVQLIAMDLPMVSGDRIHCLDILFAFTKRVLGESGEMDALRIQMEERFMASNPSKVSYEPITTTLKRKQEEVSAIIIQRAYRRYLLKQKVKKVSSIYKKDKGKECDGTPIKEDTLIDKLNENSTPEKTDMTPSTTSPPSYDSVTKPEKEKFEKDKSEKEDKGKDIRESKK

`Cc1cccc(C)c1OCCCNCc1noc(C(C)C)n1` yielded IC50 of ~10.2 µM

// field: IC50; key: `Cc1n[nH]c(C)c1OCCCNC(c1ccccn1)c1ccccn1` ; value = > 10 µM

The measured IC50 associated with `Cc1nn(C)c(C)c1OCCCNCc1cccc(-c2cncnc2)c1` reads > 10 µM

GET /value?item= `Cc1n[nH]c(C)c1OCCCNCc1cccc(-c2cncnc2)c1` &field=IC50 returns > 10 µM

----------
target: hNav1.2 (Homo sapiens (Human), UniProt Q99250); assay: Automated patch clamp (IonWorks Quattro) block of hNav1.2 channels in CHO cells; assay type: cell-based; details: Inactivated state block (TP12), read-out: IC50 Nav1.2 Inactivated state block
pIC50: −log10 of the molar value.
Classify by measured pIC50: Y if it is equal to or exceeds 6, N if it is smaller.

input: # bool: pIC50 of `Cc1nn(C)c(C)c1OCCCNC(c1ccccn1)c1ccccn1` >= 6
output: N

input: Identify whether the reported pIC50 of the following compound is 6 or greater: `Cc1cccc(C)c1OCCCNCc1cc(C(C)(C)C)cc(C(C)(C)C)c1`
output: N

input: Kindly determine if pIC50 recorded for `COc1cccc(CNCCCOc2c(C)cccc2C)c1` is above or exactly 6.
output: Y

input: For this compound, is measured pIC50 6 or higher? `Cc1cccc(C)c1OCCCNCc1cccc(F)c1`
output: N

input: Tell me whether pIC50 is at least 6 here: Cc1cccc(C)c1OCCCNC(C)c1ccccc1 (stereo not shown)
output: Y

input: Reported pIC50 reaches at least 6 for `Cc1cccc(C)c1OCCCNCc1ccccn1` ?
output: N

input: Hi team, for `Cc1cccc(C)c1OCCCNCc1cccc(-c2cncnc2)c1` , is the recorded pIC50 at or above 6?
output: Y

input: Tell me whether pIC50 is at least 6 here: `Cc1cccc(C)c1OCCCNCc1ccc(F)cc1`
output: N

input: Form field: pIC50 at least 6? Entry: `Cc1cccc(C)c1OCCCNC(c1ccccn1)c1ccccn1`
output: Y

input: Say whether `Cc1cccc(C)c1OCCCNCc1ccc(-c2ccccc2)cc1` shows pIC50 of 6 or more.
output: N

// data source = patent US10577308B2
